compounds and their reported viability, T/C
Test system: 349418-098-R-PDC spheroids, viability, % test/control
Assay: Anticancer human tumor 349418-098-R-PDC patient-derived lung adenocarcinoma cell line growth inhibition [IpAb]
Conditions: second compound 1 µM; first compound 0.1 µM; stronger effect = lower value; spheroids with HUVEC and MSC
Your answer is read as %, so omit the unit and give the number.

[
  {
    "COMPOUND": "C=CC(=O)N1CCN(c2nc(=O)n(-c3c(C)ccnc3C(C)C)c3nc(-c4c(O)cccc4F)c(F)cc23)C(C)C1 (stereo not given) + CC(C)NCC(C(=O)N1CCN(c2ncnc3c2C(C)CC3O)CC1)c1ccc(Cl)cc1",
    "QUANTITY KIND": "viability, T/C",
    "VALUE UNIT": "%",
    "READOUT VALUE": 28.3
  }
]

Value sought: viability, T/C, system 349418-098-R-PDC spheroids, viability, % test/control, item Cc1nc(NC(=O)N2CCCC2C(N)=O)sc1-c1ccnc(C(C)(C)C(F)(F)F)c1 (stereo not given) + CC(C)NCC(C(=O)N1CCN(c2ncnc3c2C(C)CC3O)CC1)c1ccc(Cl)cc1 . Result: 16.2

The compound Cc1nc(NC(=O)N2CCCC2C(N)=O)sc1-c1ccnc(C(C)(C)C(F)(F)F)c1 (stereo not given) + CCN1CCN(Cc2ccc(Nc3ncc(F)c(-c4cc(F)c5nc(C)n(C(C)C)c5c4)n3)nc2)CC1 , tested on 349418-098-R-PDC spheroids, viability, % test/control, showed viability, T/C of 11.4

----------
Test system: 349418-098-R-PDC spheroids, viability, % test/control
Assay: Anticancer human tumor 349418-098-R-PDC cell line growth inhibition [IpAb];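 further: spheroids exposed to compounds for 7 days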
Settings: second compound 1 µM; first compound 0.01 µM; stronger effect = lower value; spheroids with HUVEC and MSC
// values below are reported viability, T/C

Use the examples below as a reference point.
[
  {
    "MOLECULE": "COc1c(OCCCN2CCOCC2)ccc2c3n(c(=NC(=O)c4cnc(N)nc4)nc12)CCN3 + CCN1CCN(Cc2ccc(Nc3ncc(F)c(-c4cc(F)c5nc(C)n(C(C)C)c5c4)n3)nc2)CC1",
    "SYSTEM NAME": "349418-098-R-PDC spheroids, viability, % test/control",
    "viability, T/C": "12.3%"
  },
  {
    "MOLECULE": "CC(C)n1nc(-c2ccc3oc(N)nc3c2)c2c(N)ncnc21 + CCN1CCN(Cc2ccc(Nc3ncc(F)c(-c4cc(F)c5nc(C)n(C(C)C)c5c4)n3)nc2)CC1",
    "SYSTEM NAME": "349418-098-R-PDC spheroids, viability, % test/control",
    "viability, T/C": "7.28%"
  }
]

Would you kindly look at the next entry?
For reference, reported viability, T/C for CC(C)n1nc(-c2ccc3oc(N)nc3c2)c2c(N)ncnc21 + CC(C)NCC(C(=O)N1CCN(c2ncnc3c2C(C)CC3O)CC1)c1ccc(Cl)cc1 stands at 4.87%

----------
The entries below are paired with their reported IC50.
Tested on: 349418-098-R-PDC spheroids, viability, % test/control
Test: Anticancer human tumor 349418-098-R-PDC cell line growth inhibition [IpAb];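 further: spheroids exposed to compounds for 7 days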
Conditions: curve of first compound; second compound 10 µM; spheroids with HUVEC and MSC

[
  {
    "MOLECULE": "CCCS(=O)(=O)Nc1ccc(F)c(C(=O)c2c[nH]c3ncc(-c4ccc(Cl)cc4)cc23)c1F + CC(C)NCC(C(=O)N1CCN(c2ncnc3c2C(C)CC3O)CC1)c1ccc(Cl)cc1",
    "SYSTEM NAME": "349418-098-R-PDC spheroids, viability, % test/control",
    "IC50": "< 31.6 nM"
  },
  {
    "MOLECULE": "Cn1nccc1Nc1nccc(-c2ccn(C(CO)c3ccc(Cl)c(F)c3)c(=O)c2)n1 (stereo unspecified) + CC(C)NCC(C(=O)N1CCN(c2ncnc3c2C(C)CC3O)CC1)c1ccc(Cl)cc1",
    "SYSTEM NAME": "349418-098-R-PDC spheroids, viability, % test/control",
    "IC50": "< 31.6 nM"
  },
  {
    "MOLECULE": "CC(C)(C)c1cnc(CSc2cnc(NC(=O)C3CCNCC3)s2)o1 + CC(C)NCC(C(=O)N1CCN(c2ncnc3c2C(C)CC3O)CC1)c1ccc(Cl)cc1",
    "SYSTEM NAME": "349418-098-R-PDC spheroids, viability, % test/control",
    "IC50": "< 9.49 nM"
  },
  {
    "MOLECULE": "CC1(C)CCC(CN2CCN(c3ccc(C(=O)NS(=O)(=O)c4ccc(NCC5CCOCC5)c([N+](=O)[O-])c4)c(Oc4cnc5[nH]ccc5c4)c3)CC2)=C(c2ccc(Cl)cc2)C1 + CC(C)NCC(C(=O)N1CCN(c2ncnc3c2C(C)CC3O)CC1)c1ccc(Cl)cc1",
    "SYSTEM NAME": "349418-098-R-PDC spheroids, viability, % test/control",
    "IC50": "< 31.6 nM"
  }
]

// IC50 (349418-098-R-PDC spheroids, viability, % test/control) for COc1c(OCCCN2CCOCC2)ccc2c3n(c(=NC(=O)c4cnc(N)nc4)nc12)CCN3 + CC(C)NCC(C(=O)N1CCN(c2ncnc3c2C(C)CC3O)CC1)c1ccc(Cl)cc1 = < 3.16 nM

Entry Cc1nc(NC(=O)N2CCCC2C(N)=O)sc1-c1ccnc(C(C)(C)C(F)(F)F)c1 (stereo unspecified) + CC(C)NCC(C(=O)N1CCN(c2ncnc3c2C(C)CC3O)CC1)c1ccc(Cl)cc1 , 349418-098-R-PDC spheroids, viability, % test/control data, IC50 value: < 31.6 nM
